Observable: melting point

Below are worked cases with known answers.
[
  {
    "Compound": "N#C/C=C1/CCCCC1n1nc(-c2c(-c3ccccc3)nn3ccccc23)ccc1=O (stereo not drawn) [Example 96 (Z)-isomer]",
    "melting point": "70 to 72 °C"
  },
  {
    "Compound": "O=C(CC1=C(n2nc(-c3c(-c4ccccc4)nn4ccccc34)ccc2=O)CCCC1)N1CCSCC1 [Example 80]",
    "melting point": "180.5 to 182.5 °C"
  },
  {
    "Compound": "O=C(CCC1=C(n2nc(-c3c(-c4ccccc4)nn4ccccc34)ccc2=O)CCCC1)OCc1ccccc1 [Example 66]",
    "melting point": "111 to 113 °C"
  },
  {
    "Compound": "N#C/C=C1\\CCCCC1n1nc(-c2c(-c3ccccc3)nn3ccccc23)ccc1=O (stereo not drawn) [Example 96 (E)-isomer]",
    "melting point": "174 to 175 °C"
  },
  {
    "Compound": "CON=C1CCCCC1n1nc(-c2c(-c3ccccc3)nn3ccccc23)ccc1=O (stereo not shown) [Example 90]",
    "melting point": "85 to 87 °C"
  }
]

Please indicate melting point recorded for O=C1NCCC1n1nc(-c2c(-c3ccccc3)nn3ccccc23)ccc1=O (stereo not shown) [Example 23]
133 to 134 °C (dec.)

For the compound O=c1ccc(-c2c(-c3ccccc3)nn3ccccc23)nn1C1=C(CCO)CCCC1 [Example 105] , report melting point.
198 to 199 °C

Report measured melting point; entry is O=C(O)CON=C1CCCCC1n1nc(-c2c(-c3ccccc3)nn3ccccc23)ccc1=O (stereo not shown) [Example 57]
208 °C (dec.)

Provide melting point value for the following compound: CCCn1c(-n2nc(-c3c(-c4ccccc4)nn4ccccc34)ccc2=O)cc(=O)n(CCC)c1=O [Example 27]
155.3 °C

For the compound CC(C)(C)OC(=O)CC1=CCCCC1n1nc(-c2c(-c3ccccc3)nn3ccccc23)ccc1=O (stereo not shown) [Example 95(2)] , give its reported melting point.
145.5 to 147 °C

Note melting point for the compound shown: CN(CC(=O)O)C(=O)CC1=C(n2nc(-c3c(-c4ccccc4)nn4ccccc34)ccc2=O)CCCC1 [Example 43]
135 to 138 °C

Specify melting point for O=C(CC1=C(n2nc(-c3c(-c4ccccc4)nn4ccccc34)ccc2=O)CCCC1)N1CCN(C(c2ccccc2)(c2ccccc2)c2ccccc2)CC1 [Example 82] and stop.
249.5 to 250.5 °C

Provide one value: measured melting point of O=C1CCCC(n2nc(-c3c(-c4ccccc4)nn4ccccc34)ccc2=O)C1 (stereo not shown) [Example 102]
126 to 127 °C

Fill in reported melting point for this entry: COc1ccc(-n2nc(-c3c(-c4ccccc4)nn4ccccc34)ccc2=O)cc1 [Example 100]
158 °C

Kindly indicate its recorded melting point. Item: O=C(O)CCC1=C(n2nc(-c3c(-c4ccccc4)nn4ccccc34)ccc2=O)CCCC1 [Example 52]
184 to 185 °C

Report measured melting point; entry is CC(C)(C)OC(=O)/C=C1/CCCCC1n1nc(-c2c(-c3ccccc3)nn3ccccc23)ccc1=O (stereo not shown) [Example 98]
171 to 172 °C

----------
Observable: melting point

Worked examples follow.
[
  {
    "Molecule": "O=C1CCCCC1Oc1ccc(-c2c(-c3ccccc3)nn3ccccc23)nn1 (single isomer, unassigned) [Example 2 (less polar compound)]",
    "melting point": "214 to 216 °C"
  },
  {
    "Molecule": "CC1CC(C)(C)N=C(/C=C2\\CCCCC2n2nc(-c3c(-c4ccccc4)nn4ccccc34)ccc2=O)O1 (stereo not shown)",
    "melting point": "156 to 158 °C"
  },
  {
    "Molecule": "O=C(CC1=C(n2nc(-c3c(-c4ccccc4)nn4ccccc34)ccc2=O)CCCC1)N1CCCCC1",
    "melting point": "184 to 185 °C"
  },
  {
    "Molecule": "CN(C)C(=O)CC1=C(n2nc(-c3c(-c4ccccc4)nn4ccccc34)ccc2=O)CCCC1",
    "melting point": "80 to 81 °C"
  }
]

Indicate its recorded melting point; the molecule in question is O=C(O)CN1CCC(n2nc(-c3c(-c4ccccc4)nn4ccccc34)ccc2=O)C1=O (stereo not shown)
250 to 251 °C

Report melting point for O=C(O)C[C@@H]1CCCC[C@H]1n1nc(-c2c(-c3ccccc3)nn3ccccc23)ccc1=O (relative stereo)
238 to 240 °C

Please supply the value of reported melting point for the item `O=C(O)CNC(=O)CC1=C(n2nc(-c3c(-c4ccccc4)nn4ccccc34)ccc2=O)CCCC1`
190 to 192 °C
